Experiment: Photostability of the compound assessed as compound degradation administered as aqueous solution irradiated with UV and measured after 24 hrs by HPLC analysis
Result Type: degraded at 24 h

{"Smiles Text": "CN(C)C(=O)c1c[nH]c2ccccc12", "Result": "< 0.5%"}
{"Smiles Text": "CN(C)C(=O)c1ccc2cccccc1-2", "Result": "100%"}
{"Smiles Text": "CN(C)C(=O)c1cccc2ccccc12", "Result": "< 0.5%"}
{"Smiles Text": "CN(C)C(=O)c1cn(C)c2ccccc12", "Result": "< 0.5%"}

###

Test: Lipophilicity, logP of the compound
Assay type: physicochemical
Settings: octanol/water
Reported logP values are given for each entry in this list.

{"Smiles Text": "O=C(Cn1ccccc1=O)Nc1cc2ccccc2[nH]1", "logP": 0.4}
{"Smiles Text": "CN(C)C(=O)c1c[nH]c2ccccc12", "logP": 0.4}
{"Smiles Text": "NC(=O)C1CCN(C(=O)c2ccc3cccccc2-3)CC1", "logP": 0.6}
{"Smiles Text": "O=C(NCCO)c1ccc2[nH]cc(C(=O)c3ccccc3)c2c1", "logP": 0.6}
{"Smiles Text": "COC(=O)c1ccc2[nH]cc(C(=O)c3ccccc3)c2c1", "logP": 2.5}
{"Smiles Text": "CN(C)C(=O)Cc1ccc2cc[nH]c2c1", "logP": 1}
{"Smiles Text": "O=C(NCCc1c[nH]c2ccccc12)c1ccc2[nH]cc(C(=O)c3ccccc3)c2c1", "logP": 2.8}
{"Smiles Text": "CN(C)C(=O)c1cccc2ccccc12", "logP": 1.8}
{"Smiles Text": "COC(=O)c1ccc2c(C(=O)Nc3ccccc3)cn(C)c2c1", "logP": 2.9}
{"Smiles Text": "COC(=O)c1ccc2c(C(=O)c3ccccc3)c[nH]c2c1", "logP": 2.7}
{"Smiles Text": "CN(C)C(=O)Cc1ccc2ccccc2c1", "logP": 2.4}
{"Smiles Text": "CN(C)C(=O)c1ccc2cccccc1-2", "logP": 1.6}
{"Smiles Text": "CN(C)C(=O)c1cn(C)c2ccccc12", "logP": 1.3}
{"Smiles Text": "Cn1cc(C(=O)N2CCC(C(N)=O)CC2)c2ccccc21", "logP": 0.4}
{"Smiles Text": "NC(=O)C1CCN(C(=O)c2cccc3ccccc23)CC1", "logP": 0.8}
{"Smiles Text": "NC(=O)C1CCN(C(=O)c2c[nH]c3ccccc23)CC1", "logP": -0.2}
{"Smiles Text": "COC(=O)c1ccc2c(C(=O)N(C)C)cn(C)c2c1", "logP": 1.4}
{"Smiles Text": "Cn1c(NC(=O)Cn2ccccc2=O)cc2ccccc21", "logP": 1.1}
